Provide the recorded melting point for the entries that follow.

Examples from the recorded data:
> print(dat)
                  compound.structure.string  value.observed
1  Fc1ccc(-n2cc(-c3cccc(Nc4ncnc5cc6c(cc45)OCCOCCOCCO6)c3)nn2)cc1   129 to 132 °C
2  Clc1ccccc1-n1cc(-c2cccc(Nc3ncnc4cc5c(cc34)OCCOCCOCCO5)c2)nn1   125 to 127 °C
3  Ic1ccccc1Cn1cc(-c2cccc(Nc3ncnc4cc5c(cc34)OCCOCCOCCO5)c2)nn1   121 to 123 °C
4  Fc1cccc(-n2cc(-c3cccc(Nc4ncnc5cc6c(cc45)OCCOCCOCCO6)c3)nn2)c1   123 to 126 °C
5  Fc1ccc(CCn2cc(-c3cccc(Nc4ncnc5cc6c(cc45)OCCOCCOCCO6)c3)nn2)cc1   110 to 113 °C

Okay, here is my list. What is melting point for each of these?
1. Brc1cccc(Cn2cc(-c3cccc(Nc4ncnc5cc6c(cc45)OCCOCCOCCO6)c3)nn2)c1
2. Fc1ccccc1Cn1cc(-c2cccc(Nc3ncnc4cc5c(cc34)OCCOCCOCCO5)c2)nn1
3. COc1cccc(Cn2cc(-c3cccc(Nc4ncnc5cc6c(cc45)OCCOCCOCCO6)c3)nn2)c1

113 to 116 °C
118 to 121 °C
131 to 134 °C

###

# target_under_test: EGFR wild protein (H672-A1210) (Homo sapiens)
# Sequence (P00533 672-1210): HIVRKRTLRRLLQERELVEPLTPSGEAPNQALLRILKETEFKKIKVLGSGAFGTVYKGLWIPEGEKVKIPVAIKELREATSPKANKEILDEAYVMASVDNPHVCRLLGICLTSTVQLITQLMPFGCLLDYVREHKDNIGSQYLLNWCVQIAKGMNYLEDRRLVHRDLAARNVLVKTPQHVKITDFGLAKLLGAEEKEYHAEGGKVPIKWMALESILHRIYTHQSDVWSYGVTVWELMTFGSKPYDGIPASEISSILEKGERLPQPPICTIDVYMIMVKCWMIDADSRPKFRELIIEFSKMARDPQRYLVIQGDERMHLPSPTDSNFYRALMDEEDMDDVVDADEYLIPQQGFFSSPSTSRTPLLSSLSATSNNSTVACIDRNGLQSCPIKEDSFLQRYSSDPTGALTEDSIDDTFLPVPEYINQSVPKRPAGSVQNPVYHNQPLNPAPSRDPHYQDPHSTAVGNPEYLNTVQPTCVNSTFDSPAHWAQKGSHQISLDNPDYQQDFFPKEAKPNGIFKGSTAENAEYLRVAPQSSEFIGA
quantity_kind: pKd
Give bare numbers, as −log10 of the molar value.

Enter reported pKd observed with EGFR wild protein (H672-A1210) (Homo sapiens) for C#Cc1cccc(Nc2ncnc3cc4c(cc23)OCCOCCOCCO4)c1 [icotinib, reference compound]
4.44

###

Provide the recorded melting point for the entries that follow.

Examples from the recorded data:
> print(dat)
                  compound.structure.string  quantity.kind  value.observed
1  Brc1ccccc1Cn1cc(-c2cccc(Nc3ncnc4cc5c(cc34)OCCOCCOCCO5)c2)nn1  melting point   161 to 164 °C
2  Brc1ccc(-n2cc(-c3cccc(Nc4ncnc5cc6c(cc45)OCCOCCOCCO6)c3)nn2)cc1  melting point   158 to 161 °C
3  Brc1cc(Br)cc(Cn2cc(-c3cccc(Nc4ncnc5cc6c(cc45)OCCOCCOCCO6)c3)nn2)c1  melting point   151 to 154 °C

// switching to the query compound
For Brc1ccccc1-n1cc(-c2cccc(Nc3ncnc4cc5c(cc34)OCCOCCOCCO5)c2)nn1 , what is its reported melting point?
129 to 132 °C

###

# System: KYSE410 cells
# assay_procedure: MTT assay, KYSE410
# Assay type: cell-based, human
# reported_conditions: KYSE410, concentration 50
Provide the recorded inhibition (1 minus fraction of control) for the entries that follow.
Give bare numbers.

Examples from the recorded data:
> print(dat)
                  compound.structure.string                             quantity.kind  value.observed
1  COc1ccccc1-n1cc(-c2cccc(Nc3ncnc4cc5c(cc34)OCCOCCOCCO5)c2)nn1  inhibition (1 minus fraction of control)          0.9957
2  Clc1ccc(-n2cc(-c3cccc(Nc4ncnc5cc6c(cc45)OCCOCCOCCO6)c3)nn2)cc1  inhibition (1 minus fraction of control)          0.6836
3  Fc1ccc(CCn2cc(-c3cccc(Nc4ncnc5cc6c(cc45)OCCOCCOCCO6)c3)nn2)cc1  inhibition (1 minus fraction of control)          0.8014
4  Cc1ccccc1Cn1cc(-c2cccc(Nc3ncnc4cc5c(cc34)OCCOCCOCCO5)c2)nn1  inhibition (1 minus fraction of control)           0.974

Okay, here is my list. What is inhibition (1 minus fraction of control) for each of these?
1. c1ccc(Cn2cc(-c3cccc(Nc4ncnc5cc6c(cc45)OCCOCCOCCO6)c3)nn2)cc1
2. Clc1ccccc1-n1cc(-c2cccc(Nc3ncnc4cc5c(cc34)OCCOCCOCCO5)c2)nn1

1: 0.6498; 2: 0.9705
